Reference source for all entries: patent US8940739B2

Biological target: cDNA-expressed human hepatic CYP3A4 (Homo sapiens (Human), UniProt P08684)
Sequence (P08684 whole entry): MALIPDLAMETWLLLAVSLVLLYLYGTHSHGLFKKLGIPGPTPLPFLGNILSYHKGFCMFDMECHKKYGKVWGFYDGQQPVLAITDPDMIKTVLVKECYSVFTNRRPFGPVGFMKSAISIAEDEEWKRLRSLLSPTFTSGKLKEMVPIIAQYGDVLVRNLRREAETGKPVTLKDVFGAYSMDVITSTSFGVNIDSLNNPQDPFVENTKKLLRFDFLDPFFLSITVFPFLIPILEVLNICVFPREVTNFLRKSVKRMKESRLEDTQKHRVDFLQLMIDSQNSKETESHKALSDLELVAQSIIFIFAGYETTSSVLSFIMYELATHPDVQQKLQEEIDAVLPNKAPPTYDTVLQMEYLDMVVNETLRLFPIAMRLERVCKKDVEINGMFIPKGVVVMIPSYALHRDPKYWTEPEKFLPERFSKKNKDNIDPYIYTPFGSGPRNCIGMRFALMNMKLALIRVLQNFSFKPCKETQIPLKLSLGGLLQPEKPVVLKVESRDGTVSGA
Experiment: Measurement of CYP (IC50 of P450 CYP3A4), BFC substrate
Format: in vitro ADME
Settings: 20 minutes
Reported Endpoint: pIC50
# pIC50 = -log10(concentration in molar units)

Compound | pIC50
C=CCN1CC(=O)N2[C@@H](Cc3ccc(O)cc3)C(=O)N(Cc3cccc4c(-c5ccc(C(=O)NNC(C)(C)C)cc5)cn(C)c34)C[C@@H]2N1C(=O)NCc1ccccc1 | 5.47
C=CCN1CC(=O)N2[C@@H](Cc3ccc(O)cc3)C(=O)N(Cc3cccc4c(-c5ccc(NC(=O)Nc6ccc(OC)cc6)cc5)cn(C)c34)C[C@@H]2N1C(=O)NCc1ccccc1 | 5.02

Next item in the queue.
State the recorded pIC50 for this entry: C=CCN1CC(=O)N2C(CN(Cc3cccc4c(-c5ccc(S(C)(=O)=O)cc5)cn(C)c34)C(=O)[C@@H]2Cc2ccc(O)cc2)N1C(=O)NCc1ccccc1 (stereo partly drawn) 5.00
